The measured values listed here are drawn from PubChem BioAssay AID2060617.

System: 485368-065-R4-J2-PDC spheroids with HUVEC/MSC, viability;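 also: spheroids exposed to compounds for seven days; 100% = DMSO vehicle control wells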
Experiment: Anticancer human tumor 485368-065-R4-J2-PDC patient-derived pancreatic carcinoma cell line growth inhibition [CLK]
Conditions: second compound 3.16 µM; first compound 0.316 µM; active compounds read low
Source text: A high-throughput screen of multi-cell type tumor spheroids was designed to identify active combinations of […] and targeted small molecules. Complex spheroids include a stromal component modeled by human endothelial cells (HUVEC) and fibroblasts modeled by human mesenchymal stem cells (MSCs). […] Compounds. […] If the clinical Cmax for an agent had not been determined, the highest concentration tested was 10 microM. […]
Overview of recorded viability, T/C for various compounds
Respond numerically; units are % and should not be typed.

Hello, please tell me recorded viability, T/C for this one: CCc1c2c(nc3ccc(O)cc13)-c1cc3c(c(=O)n1C2)COC(=O)[C@]3(O)CC + CNC(=O)c1ccc(Nc2nc(OC3CCCC3)c3c(-c4ccc5nc(C)oc5c4)c[nH]c3n2)c(OC)c1
11.5

Return viability, T/C for the following compound: CC1(C)CCC(CN2CCN(c3ccc(C(=O)NS(=O)(=O)c4ccc(NCC5CCOCC5)c([N+](=O)[O-])c4)c(Oc4cnc5[nH]ccc5c4)c3)CC2)=C(c2ccc(Cl)cc2)C1 + CNC(=O)c1ccc(Nc2nc(OC3CCCC3)c3c(-c4ccc5nc(C)oc5c4)c[nH]c3n2)c(OC)c1
74
